- target_of_assay: Rabbit skeletal myosin
- method_summary: Skeletal muscle myosin II actin-activated ATPase assay
- applied_conditions: 20 nM skeletal muscle myosin II; read-out: SKMMII KI
readout: pKi
# reply with the number alone; pKi is -log10 of concentration in mol/L

Examples with answers:
Cc1ccc2c(c1)C(=O)[C@]1(O)CCN(c3ccc4ncsc4c3)C1=N2
5.31
Cc1cc2c(s1)N=C1N(c3ccc(C#N)c(C)c3)CC[C@@]1(O)C2=O
5.34
Cc1cc2c(s1)N=C1N(c3ccc4ccoc4c3)CC[C@@]1(O)C2=O
5.96

# context switch: different compound, same pKi
Note down pKi recorded for Cc1cc2c(cc1C)C(=O)[C@]1(O)CCN(c3cnc(CO)c(C)c3)C1=N2
5.17
